Where do the numbers come from? From patent US8278262B2.

# ASSAYED_TARGET: Trypsin (Bos taurus)
# Sequence (P00760 24-246): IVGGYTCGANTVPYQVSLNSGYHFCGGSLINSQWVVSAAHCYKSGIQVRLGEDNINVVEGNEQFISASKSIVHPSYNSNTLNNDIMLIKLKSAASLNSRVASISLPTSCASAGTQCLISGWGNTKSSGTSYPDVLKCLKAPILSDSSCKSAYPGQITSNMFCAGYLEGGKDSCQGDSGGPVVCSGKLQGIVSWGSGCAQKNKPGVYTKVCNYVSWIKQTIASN
# ASSAY_PROTOCOL: Kiapp determination with trypsin (Example 3)
# Format: biochemical, bovine
REPORTED_METRIC: pKi
// pKi: -log10(molar conc.)

1. MCoEeTI-ARD-2: Barnase′-[…] (SEQ ID NO:39) (SSSMGVCPKILKACARDSDCLAGCVCGPNGFCGS; not fully specified)
9.70
2. MCoEeTI-3R-3: Barnase′-[…] (SEQ ID NO:4) (SSSMGVCPRILRRCRRDSDCLAGCVCGPNGFCGS; not fully specified)
9.70

pKi recorded for this substance, MCoEeTI-KKV-1: Ba′-[…] (SEQ ID NO:5) (SSSMGKKVGVCPKILKKCRRDSDCLAGCVCGPNGFCGS; not fully specified) , is 9.70

pKi recorded for this substance, MCoEeTI-LKA-7: Bar′-[…] (SEQ ID NO:40) (SSSMGVCPKILKACRRDSDCLAGCVCGPNGFCGS; not fully specified) , is 9.70

pKi recorded for this substance, MCoEeTI-QRT-7: Barnase′-[…] (SEQ ID NO:38) (SSSMGVCPRNRQRCRRDSDCLAGCVCTNNKFCGS; not fully specified) , is 9.00

pKi recorded for this substance, MCoEeTI-T-1: Barnase′-[…] (SEQ ID NO:6) (SSSMGVCPKILKKCRRDSDCLAGCVCTNNKFCGS; not fully specified) , is 10.00

pKi recorded for this substance, SE-BMG-0: Barnase′-[…] (SEQ ID NO:3) (SSSMGVCPKILKKCRRDSDCLAGCVCGPNGFCGS; not fully specified) , is 9.70

----------
Catalogue of Ki values
# ASSAYED_TARGET: β3-Tryptase (Homo sapiens)
# Sequence (P20231 31-275): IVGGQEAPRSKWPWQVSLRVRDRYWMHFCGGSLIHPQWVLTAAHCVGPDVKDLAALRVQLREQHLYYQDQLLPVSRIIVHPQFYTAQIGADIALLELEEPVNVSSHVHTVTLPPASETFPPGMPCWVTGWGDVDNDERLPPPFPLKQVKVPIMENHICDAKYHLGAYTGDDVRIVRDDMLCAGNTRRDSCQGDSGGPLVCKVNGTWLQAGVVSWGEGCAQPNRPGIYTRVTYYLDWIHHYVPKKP
# ASSAY_PROTOCOL: Kiapp determination with tryptase (Example 3)
# Format: biochemical
# TEST_SETTINGS: read-out: Kiapp β3-Tryptase
Only the number, expressed in nM, is required.

1) SE-BMG-0: Barnase′-[…] (SEQ ID NO:3) (SSSMGVCPKILKKCRRDSDCLAGCVCGPNGFCGS; not fully specified)
100
2) MCoEeTI-T-1: Barnase′-[…] (SEQ ID NO:6) (SSSMGVCPKILKKCRRDSDCLAGCVCTNNKFCGS; not fully specified)
150
3) MCoEeTI-3R-3: Barnase′-[…] (SEQ ID NO:4) (SSSMGVCPRILRRCRRDSDCLAGCVCGPNGFCGS; not fully specified)
30

Ki recorded for this substance, MCoEeTI-KKV-1: Ba′-[…] (SEQ ID NO:5) (SSSMGKKVGVCPKILKKCRRDSDCLAGCVCGPNGFCGS; not fully specified) , is 20
